TARGET SYSTEM: T1, human TGFβ1 (human, UniProt P01137 279-390)
T1 construct: also called TGFβ1 homodimer
T1 sequence (P01137 279-390 limits assumed): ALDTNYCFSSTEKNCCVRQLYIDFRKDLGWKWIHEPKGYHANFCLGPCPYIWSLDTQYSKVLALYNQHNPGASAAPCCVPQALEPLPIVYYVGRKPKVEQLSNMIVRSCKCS
ASSAY METHOD TEXT: Biacore, 3.33-90 nM, 1:1 global fit, vs wt GC1008
Method: In FIG. 6C, seventeen mutants were selected and scaled up to produce sufficient amount of purified protein for KD (equilibrium constant=kd/ka) analysis by Biacore. Multiple concentrations (90, 30, 10 and 3.33 nM) were used in duplicate on the 150 RU level TGFβ1, 2, and 3 immobilized surfaces. KD was calculated using global curve fitting analysis for a 1-to-1 Langmuir binding model. […]
METRIC NAME: KD mutant/KD wt

>>> obs_value("S30E (antibody, V domains shown, GC1008 IgG4 variant) VH: QVQLVQSGAEVKKPGSSVKVSCKASGYTFESNVISWVRQAPGQGLEWMGGVIPIVDIANYAQRFKGRVTITADESTSTTYMELSSLRSEDTAVYYCASTLGLVLDAMDYWGQGTLVTVSS VL: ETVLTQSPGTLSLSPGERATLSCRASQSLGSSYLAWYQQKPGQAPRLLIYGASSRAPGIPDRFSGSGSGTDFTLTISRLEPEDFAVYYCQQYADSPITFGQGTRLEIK")
1.5
>>> obs_value("V55F (antibody, V domains shown, GC1008 IgG4 variant) VH: QVQLVQSGAEVKKPGSSVKVSCKASGYTFSSNVISWVRQAPGQGLEWMGGVIPIFDIANYAQRFKGRVTITADESTSTTYMELSSLRSEDTAVYYCASTLGLVLDAMDYWGQGTLVTVSS VL: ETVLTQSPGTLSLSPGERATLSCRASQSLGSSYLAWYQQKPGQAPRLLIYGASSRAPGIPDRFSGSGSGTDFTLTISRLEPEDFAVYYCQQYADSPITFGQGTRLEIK")
1
>>> obs_value("N32K (antibody, V domains shown, GC1008 IgG4 variant) VH: QVQLVQSGAEVKKPGSSVKVSCKASGYTFSSKVISWVRQAPGQGLEWMGGVIPIVDIANYAQRFKGRVTITADESTSTTYMELSSLRSEDTAVYYCASTLGLVLDAMDYWGQGTLVTVSS VL: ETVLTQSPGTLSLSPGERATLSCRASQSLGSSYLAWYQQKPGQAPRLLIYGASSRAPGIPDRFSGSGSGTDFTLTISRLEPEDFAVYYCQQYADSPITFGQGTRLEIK")
4
>>> obs_value("E74R (antibody, V domains shown, GC1008 IgG4 variant) VH: QVQLVQSGAEVKKPGSSVKVSCKASGYTFSSNVISWVRQAPGQGLEWMGGVIPIVDIANYAQRFKGRVTITADRSTSTTYMELSSLRSEDTAVYYCASTLGLVLDAMDYWGQGTLVTVSS VL: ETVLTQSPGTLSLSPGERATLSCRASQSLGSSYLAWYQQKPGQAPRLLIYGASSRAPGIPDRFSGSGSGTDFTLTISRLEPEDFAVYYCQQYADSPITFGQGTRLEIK")
2.1
>>> obs_value("I54T (antibody, V domains shown, GC1008 IgG4 variant) VH: QVQLVQSGAEVKKPGSSVKVSCKASGYTFSSNVISWVRQAPGQGLEWMGGVIPTVDIANYAQRFKGRVTITADESTSTTYMELSSLRSEDTAVYYCASTLGLVLDAMDYWGQGTLVTVSS VL: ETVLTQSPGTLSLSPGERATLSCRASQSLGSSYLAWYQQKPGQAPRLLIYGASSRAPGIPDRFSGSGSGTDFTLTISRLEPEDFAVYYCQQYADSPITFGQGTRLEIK")
2.1
>>> obs_value("Y27H (antibody, V domains shown, GC1008 IgG4 variant) VH: QVQLVQSGAEVKKPGSSVKVSCKASGHTFSSNVISWVRQAPGQGLEWMGGVIPIVDIANYAQRFKGRVTITADESTSTTYMELSSLRSEDTAVYYCASTLGLVLDAMDYWGQGTLVTVSS VL: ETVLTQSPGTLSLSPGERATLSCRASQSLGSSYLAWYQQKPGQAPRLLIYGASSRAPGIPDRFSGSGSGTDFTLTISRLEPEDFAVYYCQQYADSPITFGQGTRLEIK")
1.2
>>> obs_value("I52L (antibody, V domains shown, GC1008 IgG4 variant) VH: QVQLVQSGAEVKKPGSSVKVSCKASGYTFSSNVISWVRQAPGQGLEWMGGVLPIVDIANYAQRFKGRVTITADESTSTTYMELSSLRSEDTAVYYCASTLGLVLDAMDYWGQGTLVTVSS VL: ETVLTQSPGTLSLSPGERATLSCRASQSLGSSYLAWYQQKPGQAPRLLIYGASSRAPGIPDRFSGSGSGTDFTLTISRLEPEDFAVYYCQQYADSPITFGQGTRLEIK")
4.1
>>> obs_value("S30W (antibody, V domains shown, GC1008 IgG4 variant) VH: QVQLVQSGAEVKKPGSSVKVSCKASGYTFWSNVISWVRQAPGQGLEWMGGVIPIVDIANYAQRFKGRVTITADESTSTTYMELSSLRSEDTAVYYCASTLGLVLDAMDYWGQGTLVTVSS VL: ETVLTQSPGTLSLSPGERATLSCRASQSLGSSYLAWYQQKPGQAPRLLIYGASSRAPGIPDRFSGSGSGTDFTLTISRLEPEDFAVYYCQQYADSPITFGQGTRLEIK")
0.7
>>> obs_value("S31W (antibody, V domains shown, GC1008 IgG4 variant) VH: QVQLVQSGAEVKKPGSSVKVSCKASGYTFSWNVISWVRQAPGQGLEWMGGVIPIVDIANYAQRFKGRVTITADESTSTTYMELSSLRSEDTAVYYCASTLGLVLDAMDYWGQGTLVTVSS VL: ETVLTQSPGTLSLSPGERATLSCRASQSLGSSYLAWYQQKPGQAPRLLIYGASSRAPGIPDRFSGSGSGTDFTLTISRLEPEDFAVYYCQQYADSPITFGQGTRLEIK")
1.3
>>> obs_value("I54W (antibody, V domains shown, GC1008 IgG4 variant) VH: QVQLVQSGAEVKKPGSSVKVSCKASGYTFSSNVISWVRQAPGQGLEWMGGVIPWVDIANYAQRFKGRVTITADESTSTTYMELSSLRSEDTAVYYCASTLGLVLDAMDYWGQGTLVTVSS VL: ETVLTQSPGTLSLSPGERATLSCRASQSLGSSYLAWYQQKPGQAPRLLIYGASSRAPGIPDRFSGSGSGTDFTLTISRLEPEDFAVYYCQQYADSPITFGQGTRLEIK")
1.7
